Would you mind telling me the reported bioavailability of each entry?
# assay.procedure: Pharmacokinetics in dog (i.v. and p.o.)
# Format: in vivo
# protocol.conditions: Beagle, plasma, po, p.o. 5 mg·kg^−1 vs i.v. 1 mg·kg^−1, mean ± SD
Reply with just the number (in %).

Give bioavailability for O=C(c1csc(-c2cn[nH]c2)c1)N1C2CCC1CC(F)(c1ccccn1)C2 (centres unmarked)
90

Give bioavailability for O=C(c1csc(-c2cn[nH]c2)c1)N1C2CCC1CC(O)(c1ncccn1)C2 (centres unmarked)
170

====

# assay.procedure: in vivo
# protocol.conditions: male, Sprague Dawley, rat
measured.property: bioavailability (%)
Reply with just the number (in %).

Give bioavailability for O=C(c1csc(-c2cn[nH]c2)c1)N1C2CCC1CC(O)(c1ccccc1)C2 (stereo not shown) [compound 1]
23

====

# assay.procedure: Multiple ascending dose study, pharmacokinetics
# Assay type: in vivo
# protocol.conditions: male, human, plasma, oral, 35 mg, 35 mg b.i.d, Day 10, mean (CV%), read-out: t 1/2 (converted)
measured.property: half-life

Give half-life for O=C(c1csc(-c2cn[nH]c2)c1)N1C2CCC1CC(O)(c1ncccn1)C2 (stereo not shown) [compound 4]
9.99 h

====

Would you mind telling me the reported pIC50 of each entry?
# assay.target: human 11β‐HSD1 (Homo sapiens, UniProt P28845)
# Construct: a construct containing the full‐length gene coding for the human 11β‐HSD1 enzyme; expressed in transfected cells; host or cells: HEK293
# Sequence (P28845 whole entry): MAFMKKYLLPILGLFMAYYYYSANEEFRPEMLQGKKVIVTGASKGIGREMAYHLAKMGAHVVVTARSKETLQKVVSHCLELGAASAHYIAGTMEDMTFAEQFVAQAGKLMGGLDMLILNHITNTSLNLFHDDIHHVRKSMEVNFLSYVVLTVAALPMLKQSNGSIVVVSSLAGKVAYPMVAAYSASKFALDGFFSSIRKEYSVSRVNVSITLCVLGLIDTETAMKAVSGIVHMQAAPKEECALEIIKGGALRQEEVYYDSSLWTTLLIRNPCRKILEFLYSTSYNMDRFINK
# assay.procedure: Inhibition of human 11β-HSD1 in stably transfected HEK293 cells
# Format: cell-based
# protocol.conditions: HEK293 cells; mean ± SD [n]; read-out: Human 11β‐HSD1 IC50 in HEK293 cells
# Protocol: Inhibition of human 11β‐HSD1 was determined in HEK293 cells stably transfected with a construct containing the full‐length gene coding for the human 11β‐HSD1 enzyme according to the protocol described by Sooy et al., 2010.
Units for pIC50: none; it is -log10 of a concentration expressed in mol/L.

Give pIC50 for O=C(c1csc(-c2cn[nH]c2)c1)N1C2CCC1CC(O)(c1ncccn1)C2 (stereo not drawn) [compound 4]
7.62

Give pIC50 for O=C(c1csc(-c2cn[nH]c2)c1)N1C2CCC1CC(O)(c1ncccc1Cl)C2 (stereo not drawn) [compound 3]
7.92

Give pIC50 for O=C(c1csc(-c2cn[nH]c2)c1)N1C2CCC1CC(O)(c1ccccc1)C2 (stereo not drawn) [compound 1]
7.66

====

# assay.procedure: Tissue exposure measurements in rats (plasma and brain)
# Format: in vivo
# protocol.conditions: rat, 10 mg·kg^−1 oral gavage; mean ± SD
measured.property: Brain Cmax
Form entry: enter the amount, then its unit.

Give Brain Cmax for O=C(c1csc(-c2cn[nH]c2)c1)N1C2CCC1CC(F)(c1ccccn1)C2 (stereo not shown) [compound 7]
374 ± 184 ng/mL

Give Brain Cmax for O=C(c1csc(-c2cn[nH]c2)c1)N1C2CCC1CC(O)(c1ncccc1Cl)C2 (stereo not shown)
36 ± 12 ng/mL

Give Brain Cmax for O=C(c1csc(-c2cn[nH]c2)c1)N1C2CCC1CC(F)(c1ccccn1)C2 (stereo not shown) [compound 6]
108 ± 54 ng/mL

Give Brain Cmax for N#CC1(c2ccccn2)CC2CCC(C1)N2C(=O)c1csc(-c2cn[nH]c2)c1 (stereo not shown)
9 ± 3 ng/mL
